The following compounds are shown together with reported GI50 values.
System: A549
experimental.protocol: Growth inhibition of human A549 cells after 48 hrs by sulforhodamine B assay
Format: functional
run.parameters: A549, 48 h, read-out: GI50
API: value field is a number in µM; no unit string.

COc1cc(/C=C/c2cc3c(c(SC)c2)O[C@]2(C)CC[C@@H](O)C(C)(C)[C@H]2C3)cc(O)c1C/C=C(\C)CCC=C(C)C ... 6.03
COc1cc(/C=C/c2cc(F)c3c(c2)C[C@@H]2C(C)(C)[C@H](O)CC[C@@]2(C)O3)cc(O)c1C/C=C(\C)CCC=C(C)C ... 2.14

Data request: Look up GI50 for this compound: COCOc1cc(/C=C/c2cc(C=O)c3c(c2)C[C@@H]2C(C)(C)[C@H](O)CC[C@@]2(C)O3)cc(OC)c1C/C=C(\C)CCC=C(C)C
Data returned: 7.8
